- Tested on: ACHN
- assay protocol: NCI tumour cell line growth inhibition, 48 h
The source made the active and inactive calls. Cut-off read from the data, not from the text of the source: active = GI50 up to about 1.1 µM and inactive = higher.
Could you please pick one outcome from this set? active, inactive

These solved cases illustrate the format of a correct answer.
>>> label_value("COC(=O)c1cc2ccc(N)nc2[nH]c1=O")
"inactive"
>>> label_value("COc1cc(C2SCC(=O)N2NC(=O)c2ccc(NC(C)=O)cc2)cc(OC)c1OC (configuration not stated)")
"inactive"
>>> label_value("CN(CC#N)C1CCCC[C@H]1O (some centres not stated)")
"inactive"
>>> label_value("O=C1/C(=C/c2cccc3ccccc23)Cc2ccccc21")
"inactive"
>>> label_value("Cc1cc([N+](=O)[O-])ccc1Sc1c2ccccc2nc2ccccc12")
"inactive"

Lookup: Check the results log: what was the call for "COc1ccc(N(CC(=O)O)N=O)cc1" ?
Found: inactive

Lookup: Check the results log: what was the call for "CCOC(=O)NC(=O)c1c[nH]c(=O)[nH]c1=O" ?
Found: inactive

Lookup: Check the results log: what was the call for "COc1cc(C(=O)Nc2c3ccccc3nc3ccccc23)cc(OC)c1OC" ?
Found: inactive

Lookup: Check the results log: what was the call for Cc1cccc(Cl)c1NCC(O)CN1CCN(C)CC1 (configuration not stated) ?
Found: inactive

Lookup: Check the results log: what was the call for "CSc1ccc(NC(=S)NN(C)C)cc1" ?
Found: inactive
